What growth was measured for each of the following?
- Test system: NCI-H226 lung
- experimentNotes: NCI-60 one-dose screen, 48 h (100 = growth as untreated, 0 = no growth, -100 = all killed)
- conditions: 10 µM unless noted
The panel holds about 83,000 compounds, 20% with a hit somewhere; the sample as a whole holds those more often.
Write the value in % as a bare number.

Notebook: pull reported growth for NCI-H226 lung, entry CC1CCN(S(=O)(=O)c2ccc(S(=O)(=O)N3CCCC(c4nc5c(nnn5Cc5cccc(Cl)c5)c(=O)[nH]4)C3)cc2)CC1 (centres undefined)
75.2

Notebook: pull reported growth for NCI-H226 lung, entry CS(=O)(=O)Nc1cc(-c2ccc3ncnc(Nc4ccc5c(cnn5Cc5cccc(F)c5)c4)c3c2)cnc1Cl
20.8

Notebook: pull reported growth for NCI-H226 lung, entry CN1C(=O)/C(=C\c2c(Cl)cccc2Cl)c2ccccc21
100

Notebook: pull reported growth for NCI-H226 lung, entry COc1cc2ncnc(Nc3ccc(F)c(Cl)c3)c2cc1OCC(=O)N1CCN(c2ccccc2)CC1
92.5

###

- System: MDA-MB-435 melanoma
- experimentNotes: NCI-60 one-dose screen, 48 h (100 = growth as untreated, 0 = no growth, -100 = all killed)
- conditions: 10 µM unless noted
This is part of a sample that, as a whole, favours compounds with a hit. Of some 83,000 tested, about 20% had one in any assay.
We'd kindly ask you to apply these growth classes: low range (below 20%), mid range (20% to below 70%), high range (70% or more)

Lab note: sort C=C1C(=O)O[C@H]2[C@H]1CC/C(COC(=O)c1cc3ccccc3s1)=C\CC[C@@]1(C)O[C@@H]21 into the matching growth band.
low range

Lab note: sort COCCn1cc(-c2nc(-c3cc4cccnc4[nH]3)cs2)c2cc(OC)ccc21 into the matching growth band.
mid range

Lab note: sort COc1c(B(O)O)cccc1-c1nc2c(F)cc3[nH]ncc3c2c2c1CCCC2 into the matching growth band.
low range

Lab note: sort Nc1ncnc2c1C(c1ccccc1)c1ccc3ccccc3c1O2 (stereo not drawn) into the matching growth band.
high range

Lab note: sort O=S(=O)(NCCNc1nccc(-c2c(-c3ccc(F)c(O)c3)nc3occn23)n1)c1ccc(Cl)cc1 into the matching growth band.
mid range

Lab note: sort Nc1cc(C(=O)NC[C@H]2CN(c3ccc(N4CCC(C(=O)O)CC4)cc3)C(=O)O2)ccc1Cl into the matching growth band.
high range

Lab note: sort C=CC[Se]C(=O)Cc1c(C)n(C(=O)c2ccc(Cl)cc2)c2ccc(OC)cc12 into the matching growth band.
low range

Lab note: sort CN(C)CCNC(=O)c1cc2c3cc(Cl)ccc3[nH]c2c2ncccc12 into the matching growth band.
low range

Lab note: sort Cn1ccnc1C(=O)/C=C/c1ccc(C(=O)Nc2ccc(Cl)cc2)cc1 into the matching growth band.
mid range

Lab note: sort N#Cc1c(-c2ccc(Cl)cc2)c(C#N)c2c(C#N)c(N)nn2c1N into the matching growth band.
high range

Lab note: sort Clc1ccc(/C=N\N=C\c2ccc(Cl)c(Cl)c2)cc1Cl into the matching growth band.
high range

###

- Tested on: LOX IMVI melanoma
- experimentNotes: NCI-60 one-dose screen, 48 h (100 = growth as untreated, 0 = no growth, -100 = all killed)
- conditions: 10 µM unless noted
About 83,000 compounds went through this panel and 20% of them were active in at least one assay; those are over-represented in the sample as a whole.
What growth was measured for each of the following?
Write the value in % as a bare number.

Endpoint output: growth of CC(C)(Sc1cc(C(C)(C)C)c(O)c(C(C)(C)C)c1)Sc1cc(C(C)(C)C)c(OC(=O)CCCC(=O)O)c(C(C)(C)C)c1 . Value?
59

Endpoint output: growth of CCCCCCCCCCCCCCCCCCOc1ccccc1CC(=O)OCC[N+](C)(C)C . Value?
29.3

Endpoint output: growth of C#CCNC(=O)[C@H](CC)[C@H]1CC[C@H](C)[C@H]([C@@H](C)[C@H](O)[C@H](C)C(=O)[C@H](CC)C2O[C@]3(C=CC(=O)[C@]4(CC[C@@](C)([C@H]5CC[C@](O)(CC)[C@H](C)O5)O4)O3)[C@H](C)C[C@@H]2C)O1 (some centres undefined) . Value?
32.3

Endpoint output: growth of COc1ccc(C(O)c2cc3c(N)c(C(=O)Nc4cccc(Br)c4)sc3nc2C)cc1 (centres undefined) . Value?
15.5

Endpoint output: growth of CCCCNC(=O)Oc1ccc(/C(=C(/C)Cc2ccc(OC)cc2)c2ccc(OCCN(CC)CC)cc2)cc1 . Value?
74.9

Endpoint output: growth of N=C(N)c1ccc(-c2ccc(-c3ccc(Cl)c(Cl)c3)s2)nc1 . Value?
-88.6

Endpoint output: growth of COC1=CC(c2ccc[nH]2)=N/C1=C\c1[nH]c(C)c(C)c1CCC(=O)OCc1ccccc1 . Value?
-62.9

Endpoint output: growth of O=C1/C(=C/c2cn(-c3ccccc3)nc2-c2ccccc2)SC(=S)N1C1CCCCC1 . Value?
91

Endpoint output: growth of COc1ccc(Nc2ncc(Br)c(NCCCNC(=O)C3CCCC3)n2)cc1 . Value?
11

Endpoint output: growth of COc1ccc(Cc2cnc(NC(=O)c3cc(C)oc3C)s2)cc1 . Value?
39.9

Endpoint output: growth of CCOC(=O)c1cc(C)n(-c2ccc(C(=O)O)cc2)c1C . Value?
80.2

Endpoint output: growth of O=C1C(Cl)=C(Nc2ccc(S(=O)(=O)N3CCOCC3)cc2)C(=O)c2ccccc21 . Value?
35.3

Endpoint output: growth of CC1=C2[C@@H](CC1)[C@]1(C)O[C@@](C(C)C)(C[C@H]1OC(=O)[C@H](C)O)[C@H]2OC(=O)/C=C/c1ccccc1 . Value?
84.6

Endpoint output: growth of CCOC(=O)C(=O)C(C(=O)OCC)c1ccccc1 (centres undefined) . Value?
106

Endpoint output: growth of N#Cc1nc(-c2ccccc2)oc1S(=O)(=O)N1CCN(c2ccccc2)CC1 . Value?
39.7

Endpoint output: growth of COc1ccc(C2CC(c3ccc(Nc4nc(Nc5ccccc5)nc(Nc5ccccc5)n4)cc3)=NN2C(C)=O)cc1 (centres undefined) . Value?
103

Endpoint output: growth of Oc1c(Br)cc(Br)c2ccc(Cn3cc(-c4ccccc4C(F)(F)F)nn3)nc12 . Value?
77.2

Endpoint output: growth of CCSC(SCC)c1ccc(Cl)cc1 . Value?
95.9

Endpoint output: growth of NC(Cc1ccc(O)c([N+](=O)[O-])c1)C(=O)O (centres undefined) . Value?
94.3

Endpoint output: growth of CCC(C(=O)[C@@H](C)[C@@H](O)[C@H](C)[C@@H]1O[C@@H]([C@@H](CC)C(=O)ONC(=O)c2ccccc2)CC[C@@H]1C)[C@H]1O[C@]2(C=CC(=O)[C@]3(CC[C@@](C)([C@H]4CC[C@](O)(CC)[C@H](C)O4)O3)O2)[C@H](C)C[C@@H]1C (some centres undefined) . Value?
4.55

Endpoint output: growth of CC(=O)/C(=C\c1c(-c2ccccc2)[nH]c2ccccc12)S(C)(=O)=O . Value?
33.1

Endpoint output: growth of COc1cc(C2c3cc(OC(C)=O)c(OC)cc3CC3C(=O)OCC32)ccc1OC(C)=O (centres undefined) . Value?
103

Endpoint output: growth of CSc1nc2ncc([N+](=O)[O-])c(=O)n2[nH]1 . Value?
101

Endpoint output: growth of COc1ccc(F)cc1/C=C/C(=O)/C=C(/C=C/c1cc(F)ccc1OC)OB(F)F . Value?
3.94

Endpoint output: growth of CC(C)C1=NOC(=O)C1=Cc1cn(-c2ccccc2)nc1-c1ccc(F)cc1 . Value?
6.17

Endpoint output: growth of CCCCCCC12CCC(=O)N1CCc1cncn12 (centres undefined) . Value?
102

Endpoint output: growth of c1ccc(-c2oc(-c3ccccc3)c(CN3CCCCC3)c2CN2CCCCC2)cc1 . Value?
22.3

Endpoint output: growth of Nc1n[nH]c2cccc(C#Cc3cccc(NC(=O)c4cc(F)cc(C(F)(F)F)c4)c3)c12 . Value?
37

Endpoint output: growth of O=C(CN1CCCCC1)Nc1nc(-c2cc3ccccc3oc2=O)cs1 . Value?
101

###

What growth was measured for each of the following?
- Test system: A498 renal
- experimentNotes: NCI-60 one-dose screen, 48 h (100 = growth as untreated, 0 = no growth, -100 = all killed)
- conditions: 10 µM unless noted
- Experimental: Growth inhibition of the A498 human tumor cell line is measured as a screen for anti-cancer activity. Cells are grown in 96 well plates and exposed to the test compound for 48 hours. Compounds are tested at a single concentration, which is 10^-5 M for most compounds. The reported endpoint is percent growth (GI% or GIPRCNT), where numbers from 0 - 100% represent growth inhibition, and numbers from -100% - 0 represent cell death. For example, a value of 40 represents 60% growth inhibition. […]
Compounds without any hit were thinned out: in the full panel of roughly 83,000, 20% have a hit.
Write the value in % as a bare number.

Endpoint output: growth of C=C(C)[C@@H]1CCC[C@]2(COS(=O)(=O)c3ccc(C)cc3)CC[C@]3(C)[C@@H](CC[C@@H]4[C@@]5(C)CCCNC(C)(C)[C@@H]5CC[C@]43C)[C@@H]12 . Value?
81.3

Endpoint output: growth of Cc1ccc(/C=C2\COc3ccc(O)cc3C2=O)cc1 . Value?
109

Endpoint output: growth of Cn1c(=O)c2nc(/C=C/c3ccccc3)c(=O)[nH]c2n(C)c1=S . Value?
97.8

Endpoint output: growth of CC(=O)/C(=C\c1c(-c2ccccc2)[nH]c2ccccc12)S(C)(=O)=O . Value?
31.9

Endpoint output: growth of CS(=O)(=O)c1ccc(-c2cnn3ccc(-c4cccc(S(=O)(=O)C5CC5)c4)nc23)cc1 . Value?
30

Endpoint output: growth of COc1ccc(/C=C(\C#N)n2nnc3cc(F)c(F)cc32)cc1 . Value?
76.2

Endpoint output: growth of Oc1c(I)cc(I)cc1CNCc1ccccn1 . Value?
62.4

Endpoint output: growth of O=C(CSC(=S)n1cnnc1)NC(=O)c1ccccc1 . Value?
106

Endpoint output: growth of CNC(=O)c1ccccc1Oc1nc(Nc2cc(OC)c(OC)c(OC)c2)ncc1Br . Value?
-18.3

Endpoint output: growth of COc1cc2c(cc1OC)C(C)N(S(N)(=O)=O)CC2 (stereo unspecified) . Value?
102

Endpoint output: growth of Cc1[nH]c(C(=O)Nc2ccccc2OC2CCNCC2)c(Cl)c1Cl . Value?
67.6

Endpoint output: growth of CSc1nc(N)c(NS(=O)(=O)c2ccc(C(C)=O)cc2)c(=O)[nH]1 . Value?
105

Endpoint output: growth of CCCCNC(=O)CC1=C(C)/C(=C/c2[nH]c(-c3ccc[nH]3)cc2OC)N=C1C . Value?
3.74

Endpoint output: growth of Cc1cccc(/C=C/c2c(C(=O)/C=C/c3ccccc3)c(C)nc3ccccc23)c1 . Value?
-38.2

Endpoint output: growth of Fc1cccc(Oc2ccc(Nc3ncnc4ccc(OCCCN5CCOCC5)cc34)cc2Cl)c1 . Value?
-4.84

Endpoint output: growth of CCCCn1c(=O)[nH]c(N)c([C@@H]2c3c([nH]c(=O)n(CCCC)c3=O)Oc3ccc4ccccc4c32)c1=O . Value?
101

Endpoint output: growth of CC(=O)O[C@H]1CC2CCC3C(CC[C@@]4(C)C3C[C@H]([N+]3(C)CCCCC3)[C@@H]4OC(C)=O)[C@@]2(C)C[C@@H]1N1CCCCC1 (stereo partly specified) . Value?
111

Endpoint output: growth of C#CCOc1cccc(Nc2ncnc3cc(NC(=O)C=C)ccc23)c1 . Value?
26.8

Endpoint output: growth of CN(/C(N)=N/N=C/c1c2ccccc2cc2ccccc12)C1CCCCC1 . Value?
50.3

Endpoint output: growth of O=C(Nc1nc(-c2ccc(Cl)cc2)nc2c1sc(=S)n2-c1ccccc1)C(F)(F)F . Value?
-8.62

Endpoint output: growth of O=C1C(Cl)=C(Nc2ccc(S(=O)(=O)N3CCOCC3)cc2)C(=O)c2ccccc21 . Value?
68.8

Endpoint output: growth of Cc1csc(Nc2nc(-c3ccccn3)nc(C(Cl)(Cl)Cl)n2)n1 . Value?
90.7

Endpoint output: growth of Clc1ccc(/C=N\N=C\c2ccc(Cl)c(Cl)c2)cc1Cl . Value?
108

Endpoint output: growth of O=C1c2c(c3c4ccccc4[nH]c3c3ccc4ccccc4c23)C(=O)N1CCN1CCOCC1 . Value?
61.4

Endpoint output: growth of Cc1cn(-c2cc(NC(=O)c3cccc(C#Cc4cccc5[nH]nc(N)c45)c3)cc(C(F)(F)F)c2)cn1 . Value?
35.1

Endpoint output: growth of O=C(CN1C(=O)S/C(=C\c2ccccc2)C1=O)Nc1ncc(Cc2ccccc2Cl)s1 . Value?
112
